Sourced from patent US7786141B2

Listed here: items and their measured Emax.
test.system: M1 muscarinic receptor (Homo sapiens, UniProt P11229)
Construct: expressed in transfected cells; host or cells: CHO (M1-CHO)
Sequence (P11229 whole entry): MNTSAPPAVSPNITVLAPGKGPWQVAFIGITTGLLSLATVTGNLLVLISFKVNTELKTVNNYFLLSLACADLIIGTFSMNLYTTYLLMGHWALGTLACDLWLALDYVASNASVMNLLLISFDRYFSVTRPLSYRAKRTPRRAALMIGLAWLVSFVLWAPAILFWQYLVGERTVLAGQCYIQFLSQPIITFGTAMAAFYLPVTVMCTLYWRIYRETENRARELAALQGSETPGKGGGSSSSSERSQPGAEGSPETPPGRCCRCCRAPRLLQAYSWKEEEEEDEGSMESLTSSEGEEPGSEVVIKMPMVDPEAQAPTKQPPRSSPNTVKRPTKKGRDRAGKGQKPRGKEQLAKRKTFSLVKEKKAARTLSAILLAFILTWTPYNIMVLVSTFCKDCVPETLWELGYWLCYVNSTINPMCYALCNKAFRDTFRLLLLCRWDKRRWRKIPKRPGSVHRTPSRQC
assay: Functional mobilization of intracellular calcium (FLIPR) in M1-CHO cells
Assay type: cell-based
run.conditions: Table 4; 100% efficacy is the maximum response obtained with the Carbachol control
reported.endpoint: Emax

INSERT INTO measurements (molecule, reported_endpoint, recorded_measurement) VALUES
  ('CC(=O)N1CC2(CCN(C3CC4CCC(C3)N4C(=O)OCC(C)(C)C)CC2)c2ccccc21 (stereo not shown)', 'Emax', '< 25%'),
  ('CCOC1CCCCC1N1CCC2(CC1)CN(C(C)=O)c1ccc(F)cc12 (stereo not shown)', 'Emax', '< 25%'),
  ('COCCN1CCC(N2CCC3(CC2)CN(C(C)=O)c2ccc(F)cc23)CC1', 'Emax', '< 25%'),
  ('CC(=O)N[C@H]1CCC2(CCN(CC3CCC3)CC2)c2ccccc21', 'Emax', '25 to 100%'),
  ('CCOC(=O)N1CCC(N2CCC3(CC2)CN(C(C)=O)c2c(CC)cccc23)CC1', 'Emax', '25 to 100%'),
  ('CCC#CCOC(=O)N1CCC(N2CCC3(CC2)CN(C(=O)N(C)C)c2ccc(F)cc23)CC1', 'Emax', '25 to 100%'),
  ('CN(C)C(=O)N1CC2(CCN(C3CCN(C(=O)c4cccnc4)CC3)CC2)c2cc(F)ccc21', 'Emax', '< 25%'),
  ('Cc1ncc(N2CCC(N3CCC4(CC3)CN(C(=O)N(C)C)c3ccc(F)cc34)CC2)nc1C', 'Emax', '25 to 100%'),
  ('CN(C)C(=O)N1CC2(CCN(C[C@@H]3CCN(c4nccs4)C3)CC2)c2cc(F)ccc21', 'Emax', '25 to 100%'),
  ('CN(C)C(=O)N[C@H]1CC2(CCN(C[C@@H]3C[C@H]4C=C[C@H]3C4)CC2)c2ccccc21', 'Emax', '25 to 100%'),
  ('COC(=O)N1CCCC(CCN2CCC3(CCC(NC(C)=O)c4ccccc43)CC2)C1 (stereo not shown)', 'Emax', '25 to 100%'),
  ('COc1cc2c(cc1OC)C1(CCN(C3CC(C)(C)CC(C)(C)C3)CC1)CC2NC(C)=O (stereo not shown)', 'Emax', '< 25%'),
  ('COCCN1CC2(CCN(C3CCCCCC3)CC2)c2cc(F)ccc21', 'Emax', '25 to 100%'),
  ('CCOC(=O)N1CC[C@@H](CN2CCC3(CC2)CN(C(C)=O)c2cccc(C)c23)C1', 'Emax', '25 to 100%'),
  ('CN(C)C(=O)N[C@H]1CC2(CCN([C@@H]3CC4CC[C@@H]3C4)CC2)c2ccccc21', 'Emax', '< 25%'),
  ('C#CCOC(=O)N1C2CCC1CC(N1CCC3(CC1)CN(C(C)=O)c1ccccc13)C2 (stereo not shown)', 'Emax', '25 to 100%'),
  ('CC(=O)N[C@H]1CC2(CCN(C3CCCC3C)CC2)c2ccccc21 (stereo partly shown)', 'Emax', '25 to 100%'),
  ('O=C(N[C@H]1CC2(CCN(C[C@@H]3C[C@H]4C=C[C@H]3C4)CC2)c2ccccc21)c1ccoc1', 'Emax', '25 to 100%'),
  ('COc1cc2c(cc1OC)C1(CCN(C3CCCCC3)CC1)C[C@@H]2N(C(C)=O)[C@@H](C)c1ccccc1', 'Emax', '< 25%'),
  ('CCOC(=O)N1CCC(N2CCCC3(CC2)CN(C(C)=O)c2ccc(F)cc23)C1 (stereo not shown)', 'Emax', '25 to 100%'),
  ('CC(F)CC(=O)N1CCC(N2CCC3(CC2)CN(C(=O)N(C)C)c2ccc(F)cc23)CC1 (stereo not shown)', 'Emax', '25 to 100%'),
  ('CN(C)C(=O)N1CC2(CCN(C3CCN(c4ccc(F)cc4)CC3)CC2)c2cc(F)ccc21', 'Emax', '25 to 100%'),
  ('CC(=O)N[C@H]1CC2(CCN(C3CCC(C(C)(C)C)CC3)CC2)c2ccccc21 (stereo partly shown)', 'Emax', '< 25%'),
  ('CN(C)C(=O)N1CC2(CCN(C3CCN(C(=O)c4cccc(F)c4)CC3)CC2)c2cc(F)ccc21', 'Emax', '25 to 100%'),
  ('CC(=O)N[C@H]1CCC2(CCN(C3CCC(C(C)(C)C)CC3)CC2)c2ccccc21 (stereo partly shown)', 'Emax', '25 to 100%'),
  ('CCOC(=O)N1CCC(CN2CCC3(CC2)CN(C(C)=O)c2ccc(S(C)(=O)=O)cc23)CC1', 'Emax', '< 25%'),
  ('CCCC(=O)N[C@H]1CC2(CCN([C@@H]3CC4CC[C@@H]3C4)CC2)c2ccccc21', 'Emax', '25 to 100%'),
  ('CCOC(=O)N1CCC(N2CCC3(CC2)CN(c2ccccc2F)c2ccc(F)cc23)CC1', 'Emax', '25 to 100%'),
  ('CCOC(=O)N1CCC(N2CCC3(CC2)CN(C2CCC4(CC2)OCCO4)c2ccccc23)CC1', 'Emax', '25 to 100%'),
  ('CC#CC(C)OC(=O)N1CCC(N2CCC3(CC2)CN(C(=O)N(C)C)c2ccc(F)cc23)CC1 (stereo not shown)', 'Emax', '25 to 100%'),
  ('CCc1nccnc1N1CCC(N2CCC3(CC2)CN(C(=O)N(C)C)c2ccc(F)cc23)CC1', 'Emax', '25 to 100%');

====

Listed here: items and their measured Emax.
test.system: M1 muscarinic receptor (Homo sapiens, UniProt P11229)
Construct: expressed in transfected cells; host or cells: CHO (M1-CHO)
assay: Functional mobilization of intracellular calcium (FLIPR) in M1-CHO cells
Assay type: cell-based
run.conditions: Table 4; 100% efficacy is the maximum response obtained with the Carbachol control
Description: Functional Mobilization of Intracellular Calcium to Determine Muscarinic Receptor Activity: […] Compounds are prepared at a 2× fold concentration in a 96-well plate (round bottom, Costar Corning cat# 3656), by reconstituting the pre-spotted compounds in bath 1 containing 1 mM probenecid. […] In both assay modes, the fluorescence is recorded for 60 sec (excitation wavelength is […] and emission wavelength 540 nm) using the FLIPR 3 instrument. […]
reported.endpoint: Emax

INSERT INTO assay_data (molecule, recorded_measurement) VALUES
  ('CCCC#CCOC(=O)N1CCC(N2CCC3(CC2)CN(C(=O)N(C)C)c2ccc(F)cc23)CC1 [compound 456]', '25 to 100%'),
  ('CC(=O)N1CC2(CCN(CC3CCC(C)=CC3C)CC2)c2cc(F)ccc21 (stereo not shown) [compound 968]', '< 25%'),
  ('CC(=O)N[C@@H]1CCC2(CCN([C@@H]3C[C@H]4CC[C@@H]3C4)CC2)c2ccccc21 [compound 506]', '< 25%'),
  ('CC(=O)N[C@@H]1CC2(CCN(C3CCC3)CC2)c2ccccc21 [compound 682]', '< 25%');

====

test.system: M4 muscarinic receptor (Homo sapiens)
Construct: expressed in transfected cells; host or cells: CHO (M4-CHO)
Sequence (P08173 whole entry): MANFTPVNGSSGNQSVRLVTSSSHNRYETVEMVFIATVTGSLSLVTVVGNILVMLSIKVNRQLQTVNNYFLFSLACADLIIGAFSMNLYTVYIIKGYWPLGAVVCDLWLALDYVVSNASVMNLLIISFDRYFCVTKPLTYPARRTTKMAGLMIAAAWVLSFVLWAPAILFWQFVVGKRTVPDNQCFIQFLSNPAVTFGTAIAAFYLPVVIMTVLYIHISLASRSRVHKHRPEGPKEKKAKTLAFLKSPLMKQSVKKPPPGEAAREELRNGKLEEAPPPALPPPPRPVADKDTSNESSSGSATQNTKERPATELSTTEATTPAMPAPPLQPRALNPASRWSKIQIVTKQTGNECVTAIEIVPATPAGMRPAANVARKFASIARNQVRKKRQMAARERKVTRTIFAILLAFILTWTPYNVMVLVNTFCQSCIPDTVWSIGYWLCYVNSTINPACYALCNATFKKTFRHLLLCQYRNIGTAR
assay: Functional mobilization of intracellular calcium (FLIPR) in M4-CHO cells
Type: cell-based
run.conditions: Table 4; 100% efficacy is the maximum response obtained with the Carbachol control
reported.endpoint: Emax

INSERT INTO assay_data (compound, recorded_measurement) VALUES
  ('CC(=O)N1CC2(CCN(C3CC4CCC(C3)N4C(=O)OCC(C)(C)C)CC2)c2ccccc21 (centres unmarked)', '< 25%'),
  ('CCOC(=O)N1C2CCC1CC(N1CCC3(CCCc4ccccc43)CC1)C2 (centres unmarked)', '25 to 100%'),
  ('CCOC(=O)N1CCC(N2CCC3(CC2)CN(C(C)=O)c2ccc(-c4cccc(OC)c4)cc23)CC1', '< 25%'),
  ('CCOC(=O)N1CCC(N2CCC3(CC2)C[C@H](NC(C)=O)c2cc(OC)c(OC)cc23)CC1', '25 to 100%'),
  ('CC(=O)N[C@H]1CCC2(CCN(CC3CCCC3)CC2)c2ccccc21', '25 to 100%'),
  ('CCOC(=O)N1CCC(N2CCC3(CC2)CN(C2CCCCC2=O)c2ccc(F)cc23)CC1 (centres unmarked)', '25 to 100%'),
  ('CCOC(=O)N1CCC(N2CCC3(CC2)CN(C(C)=O)c2cccc(C(F)(F)F)c23)CC1', '< 25%'),
  ('CC(=O)N1CC2(CCN(C3CC4CCC(C3)N4C(=O)OCC3CC3)CC2)c2ccccc21 (centres unmarked)', '25 to 100%');

====

test.system: M4 muscarinic receptor (Homo sapiens)
Construct: expressed in transfected cells; host or cells: CHO (M4-CHO)
assay: Functional mobilization of intracellular calcium (FLIPR) in M4-CHO cells
Type: cell-based
run.conditions: Table 4; 100% efficacy is the maximum response obtained with the Carbachol control
reported.endpoint: Emax

INSERT INTO measurements (compound, recorded_measurement) VALUES
  ('Cc1ccc2c(c1)C1(CCN(C3CC4CCC3C4)CC1)CN2C(=O)c1ccccn1 (stereo not shown) [compound 813]', '< 25%'),
  ('CCOC(=O)N1CCC(N2CCC3(CC2)CN(C(C)=O)c2ccc(S(C)(=O)=O)cc23)CC1 [compound 719]', '< 25%'),
  ('CCOC(=O)N1C2CCC1CC(N1CCC3(CC1)CN(C(C)=O)c1c(C)cc(C)cc13)C2 (stereo not shown) [compound 827]', '25 to 100%'),
  ('CS(=O)(=O)N[C@H]1CCC2(CCN([C@H]3CC4CC[C@H](C4)C3)CC2)c2ccccc21 [compound 668]', '25 to 100%'),
  ('CCOC(=O)N1CCC(N2CCC3(CC2)CN(C(C)=O)c2c(-c4cccnc4)cccc23)CC1 [compound 728]', '< 25%'),
  ('CCC#CCOC(=O)N1CC[C@H](CN2CCC3(CC2)CN(C(C)=O)c2ccccc23)C1 [compound 578]', '25 to 100%'),
  ('CN(C)C(=O)N1CC2(CCN(C3CCN(c4nccnc4C#N)CC3)CC2)c2cc(F)ccc21 [compound 497]', '25 to 100%'),
  ('CC(=O)N1CC2(CCN(C3CCN(c4cncc(-c5ccc(F)cc5)n4)CC3)CC2)c2ccccc21 [compound 556]', '< 25%'),
  ('O=C(O)C1CC2(CCN(C3CCCCCC3)CC2)c2ccccc21 (stereo not shown) [compound 488]', '25 to 100%'),
  ('COC(=O)NC1CC2(CCN(C3C[C@@H]4CC[C@@H]3C4)CC2)c2ccccc21 (stereo partly shown) [compound 586]', '25 to 100%'),
  ('CCOC(=O)N1CCC(N2CCC3(CC2)CN(C(=O)NCc2ccccc2)c2ccccc23)CC1 [compound 712]', '25 to 100%'),
  ('O=C1CCCCC1N1CC2(CCN(C3CC4CCC(C4)C3)CC2)c2cc(F)ccc21 (stereo not shown) [compound 621]', '25 to 100%'),
  ('CC(CF)OC(=O)N1CCC(N2CCC3(CC2)CN(C(=O)N(C)C)c2ccc(F)cc23)CC1 (stereo not shown) [compound 987]', '25 to 100%'),
  ('CCOC(=O)N1CCC(N2CCC3(CC2)CN(C(C)=O)c2c(-c4ccccc4)cccc23)CC1 [compound 857]', '< 25%'),
  ('CC(=O)N[C@H]1CCC2(CCN([C@H]3CC4CC[C@H](C4)C3)CC2)c2ccccc21 [compound 861]', '25 to 100%'),
  ('CCC#CCOC(=O)N1CCC(N2CCC3(CC2)CN(C(C)=O)c2cccc(C)c23)CC1 [compound 825]', '< 25%');
